Reference source for all entries: patent US8865894B2

- system tested: mTOR (Mus musculus)
- Construct: endogenous in cells; host or cells: TSC1-/- MEF (mouse embryo fibroblasts)
- procedure details: Cellular assay mTOR (phospho-T389 S6K1 SureFire in TSC1-/- MEF cells)
- Type: cell-based
- test context: TSC1-/- MEF cells; read-out: mTOR S6K(T389)_TSC1ko/ IC50
measured metric: IC50 (nM)

Recorded IC50, per entry:
[[record]]
molecule = "Nc1ncc(-c2cc(N3C(=O)O[C@H]4COC[C@H]43)nc(N3CCOCC3)n2)c(C(F)(F)F)n1 [Example 21]"
system_tested = "mTOR (Mus musculus)"
numeric_value = 942

[[record]]
molecule = "COC[C@H]1COC(=O)N1c1cc(-c2cnc(N)nc2C(F)(F)F)nc(N2CCOCC2)n1 [Example 5]"
system_tested = "mTOR (Mus musculus)"
numeric_value = 1410

[[record]]
molecule = "Nc1cc(C(F)(F)F)c(-c2cc(N3CCOCC3)nc(N3CCOCC3)n2)cn1 [WO2007/084786 Example 10, reference compound]"
system_tested = "mTOR (Mus musculus)"
numeric_value = 602


(P) C[C@H]1OC(=O)N(c2cc(-c3cnc(N)nc3C(F)(F)F)nc(N3CCOC[C@@H]3C)n2)[C@H]1CO [Example 10]
(Q) [2H]C1([2H])OC([2H])([2H])C([2H])([2H])N(c2nc(-c3cnc(N)nc3C(F)(F)F)cc(N3C(=O)O[C@H](C)[C@@H]3CO)n2)C1([2H])[2H] [Example 8]
When the recorded IC50 values are compared, which is smaller: that of P or that of Q ? # answer = label of selected item
Q

(1) CC1(CO)COC(=O)N1c1cc(-c2cnc(N)nc2C(F)(F)F)nc(N2CCOCC2)n1 (racemic) [Example 3]
(2) C[C@H]1COCCN1c1nc(-c2cnc(N)nc2C(F)(F)F)cc(N2C(=O)OC[C@@H]2C)n1 [Example 13]
Please indicate which item has the smaller measured IC50: 1 versus 2 Label of pick, please.
1

(1) C[C@H](O)CC1OC(=O)N(c2cc(-c3cnc(N)nc3C(F)(F)F)nc(N3CCOCC3)n2)[C@H]1C (single isomer, unassigned) [Example 25]
(2) C[C@H]1CN(c2cc(-c3cnc(N)nc3C(F)(F)F)nc(N3CCOCC3)n2)C(=O)O1 [Example 16]
# compare IC50 for 1 vs 2 ; return the one with the smaller value The response must carry the label of the picked entry.
2
(2: 942 nM, 1: 1830 nM)

(P) C[C@@H]1OC(=O)N(c2cc(-c3cnc(N)nc3C(F)(F)F)nc(N3CCOCC3)n2)[C@H]1CO [Example 6]
(Q) C[C@H]1OC(=O)N(c2cc(-c3cnc(N)nc3C(F)(F)F)nc(N3CCOCC3)n2)[C@H]1COC=O [Example 12]
Smaller IC50 value, P vs Q ? API: response body contains the label of the selected item.
P
(P: 574 nM, Q: 1100 nM)
